- target under test: ZFP SBS#466 (synthetic)
- Sequence (chain, as listed by the source): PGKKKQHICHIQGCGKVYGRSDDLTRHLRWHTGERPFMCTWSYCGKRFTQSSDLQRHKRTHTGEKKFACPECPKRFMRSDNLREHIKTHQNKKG
- run description: EMSA
- details: tags: MBP fusion
value type: Kd (nM)
Answers are plain numbers, in nM.

stdin: Report Kd for CAGGCTGCGC (dsDNA) DNA 1: CAGGCTGCGC DNA 2: GCGCAGCCTG please.
stdout: 65
